# System: blackgrass
# protocol: Test C postemergence
# Assay type: in vivo, Alopecurus myosuroides
# test context: Postemergence, 62 g ai/ha; scale 0 to 100 (0 no effect, 100 complete control)

| chemical smiles | Plant response rating, Blackgrass |
| --- | --- |
| N#Cc1cccc(Oc2ncc(Br)cn2)c1-n1cc(I)cn1 | 10 |
| Clc1cnc(Oc2cccc(Br)c2-n2cc(Br)nn2)nc1 | 5 |
| CCOc1cn(-c2c(Br)cccc2Oc2ncc(Cl)cn2)nn1 | 5 |
| FCc1cccc(Oc2ncc(Br)cn2)c1-n1cc(C(F)(F)F)cn1 | 5 |
| N#Cc1cnn(-c2c(C#N)cccc2Oc2ncc(F)cn2)c1 | 5 |
| FC(F)(F)c1cnn(-c2ccccc2Oc2ncc(Cl)cn2)c1 | 30 |
| N#Cc1cccc(Oc2ncc(F)cn2)c1-n1cc(I)cn1 | 5 |
